Species on record: Rattus norvegicus
assay-notes: DrugMatrix - Regimen: Daily Repeat
Type: toxicity, organism-based, Sprague-Dawley
Parameters: regimen Daily Repeat, gender Male, age 6-8 weeks
condition-set: in vivo, po, 0 mg/kg, 72 h, tissue Blood, route oral GAVAGE, dose level Control, time 3 day, […]
Below: a set of entries, each annotated with reported LYMPHOCYTE.

# compound, LYMPHOCYTE, %
data = [
    ("C#C[C@]1(O)CC[C@H]2[C@@H]3CCc4cc(O)ccc4[C@H]3CC[C@@]21C [ETHINYL ESTRADIOL]", 87.5),
    ("CC(=O)Nc1nnc(S(N)(=O)=O)s1 [ACETAZOLAMIDE]", 87.83),
    ("COc1ncnc(NS(=O)(=O)c2ccc(N)cc2)c1OC [SULFADOXINE]", 87.83),
    ("CN(CCOc1ccc(CC2SC(=O)NC2=O)cc1)c1ccccn1 (centres undefined) [ROSIGLITAZONE]", 94.67),
]

* * *

Reported ABSOLUTE MONOCYTE values are given for each entry in this list.
Species: Rattus norvegicus
assay-notes: DrugMatrix - Regimen: Daily Repeat
Assay type: toxicity, organism-based, Sprague-Dawley
Set-up: regimen Daily Repeat, gender Male, age 6-8 weeks
condition-set: in vivo, po, 0 mg/kg, 2184 h, tissue Blood, route oral GAVAGE, dose level Control, time 91 day, vehicle .5 % CMC
endpoint-name: ABSOLUTE MONOCYTE

# compound, result
data = [
    ("O=c1cc(-c2ccccc2)oc2ccc3ccccc3c12 [BETA-NAPHTHOFLAVONE]", "160 cells/µL"),
    ("Clc1cc2c(cc1Cl)Oc1cc(Cl)c(Cl)cc1O2 [2,3,7,8-TETRACHLORODIBENZO-P-DIOXIN]", "160 cells/µL"),
]

* * *

Species on record: Rattus norvegicus
assay-notes: DrugMatrix - Regimen: Daily Repeat
Format: toxicity, organism-based, Sprague-Dawley
Design: regimen Daily Repeat, gender Male, age 6-8 weeks
condition-set: in vivo, po, 0 mg/kg, 120 h, tissue Plasma, route oral GAVAGE, dose level Control, time 5 day, vehicle 100 % WATER
endpoint-name: CARBON DIOXIDE (mmol/L)

# compound, readout-number
measured = [
    ("CCN(CC)CC#CCOC(=O)C(O)(c1ccccc1)C1CCCCC1 (centres undefined) [OXYBUTYNIN]", 27.67),
    ("OCCO [ETHYLENE GLYCOL]", 32),
    ("CC[C@H]1OC(=O)[C@H](C)[C@@H](O[C@H]2C[C@@](C)(OC)[C@@H](O)[C@H](C)O2)[C@H](C)[C@@H](O[C@@H]2O[C@H](C)C[C@H](N(C)C)[C@H]2O)[C@](C)(OC)C[C@@H](C)C(=O)[C@H](C)[C@@H](O)[C@]1(C)O [CLARITHROMYCIN]", 34),
    ("CN1C2CCCC1CC(NC(=O)c1nn(C)c3ccccc13)C2 (centres undefined) [GRANISETRON]", 31.33),
    ("O=C(O)c1cccnc1 [NIACIN]", 28.33),
    ("CCCc1nn(C)c2c(=O)[nH]c(-c3cc(S(=O)(=O)N4CCN(C)CC4)ccc3OCC)nc12", 32),
    ("CC[C@H]1OC(=O)[C@H](C)[C@@H](O[C@H]2C[C@@](C)(OC)[C@@H](O)[C@H](C)O2)[C@H](C)[C@@H](O[C@@H]2O[C@H](C)C[C@H](N(C)C)[C@H]2O)[C@](C)(O)C[C@@H](C)CN(C)[C@H](C)[C@@H](O)[C@]1(C)O [AZITHROMYCIN]", 33.67),
    ("CNS(=O)(=O)Cc1ccc2[nH]cc(CCN(C)C)c2c1", 32.33),
    ("O=P1(N(CCCl)CCCl)NCCCO1 (centres undefined) [CYCLOPHOSPHAMIDE ANHYDROUS]", 31),
    ("CCOC(N)=O", 29.33),
    ("Cc1c(N(C)CS(=O)(=O)[O-])c(=O)n(-c2ccccc2)n1C.[Na+] [DIPYRONE SODIUM]", 32.33),
    ("CC(C)(C)NC[C@H](O)COc1nsnc1N1CCOCC1 [TIMOLOL]", 31.33),
    ("Nc1ccc(S(=O)(=O)Nc2nccs2)cc1 [SULFATHIAZOLE]", 31.33),
    ("CCCCCCCCCCCCCCCC[n+]1ccccc1.[Br-]", 33.83),
]

The origin of these recorded values is ChEMBL document CHEMBL3885881.
